Here the recorded shrunken log2 fold change is given for each entry.
system: Escherichia coli TOP10; assay: shrunken log2 fold change of peptide-encoding DNA abundance (4.5 h post-induction vs induction); higher = less antimicrobial activity (less host growth inhibition); conditions: time post-induction: 4.5 h; library: site-saturation at positions 5, 18, 19, 20
Field format: numeric only.

get_value(item= RRIRDRPPRLPRPRPRPTQPPRP , readout=shrunken log2 fold change) returns 0.0164

The measured shrunken log2 fold change associated with RRIRNRPPRLPRPRPRPYQFPRP reads -0.225

Note to self: shrunken log2 fold change recorded for RRIRPRPPRLPRPRPRPTYYPRP was -0.636

RRIRTRPPRLPRPRPRPCLQPRP yielded shrunken log2 fold change of -0.0598

Field shrunken log2 fold change (entry RRIRARPPRLPRPRPRPTGQPRP ) reads 0.65

----------
# shrunken log2 fold change annotations
system: Escherichia coli TOP10; assay: shrunken log2 fold change of peptide-encoding DNA abundance (4.5 h post-induction vs induction); higher = less antimicrobial activity (less host growth inhibition); conditions: time post-induction: 4.5 h; library: site-saturation at positions 5, 18, 19, 20

// below: answered sequences
Sequence record: RRIRARPPRLPRPRPRPLVIPRP
shrunken log2 fold change: -0.152
--
Sequence record: RRIRVRPPRLPRPRPRPQWMPRP
shrunken log2 fold change: -0.105

Kindly consider the entry below.
// RRIRQRPPRLPRPRPRPATAPRP : shrunken log2 fold change value = 0.115

----------
system: Escherichia coli TOP10; experiment: shrunken log2 fold change of peptide-encoding DNA abundance (4.5 h post-induction vs induction); higher = less antimicrobial activity (less host growth inhibition); settings: time post-induction: 4.5 h; library: site-saturation at positions 5, 18, 19, 20
Reported shrunken log2 fold change is given for each of the following sequences.
Lab note: jot down the number only; don't add units.

Example entries begin here.
Sequence record: RRIRERPPRLPRPRPRPCCPPRP
shrunken log2 fold change: -0.159

Sequence record: RRIRQRPPRLPRPRPRPPMLPRP
shrunken log2 fold change: 0.117

Sequence record: RRIRSRPPRLPRPRPRPPLIPRP
shrunken log2 fold change: 0.191

Sequence record: RRIRRRPPRLPRPRPRPTSNPRP
shrunken log2 fold change: 0.123

Sequence record: RRIRERPPRLPRPRPRPDCGPRP
shrunken log2 fold change: 0.0191

In plain terms, RRIRDRPPRLPRPRPRPNILPRP has a documented shrunken log2 fold change of -0.437

// sample RRIRIRPPRLPRPRPRPYIQPRP , its shrunken log2 fold change was -1.75

Value of measured shrunken log2 fold change for the entry RRIRSRPPRLPRPRPRPYAPPRP : -0.205

Briefly, shrunken log2 fold change measured for RRIRMRPPRLPRPRPRPAILPRP : 0.467

----------
system: Escherichia coli TOP10; test: shrunken log2 fold change of peptide-encoding DNA abundance (4.5 h post-induction vs induction); higher = less antimicrobial activity (less host growth inhibition); conditions: time post-induction: 4.5 h; library: site-saturation at positions 5, 18, 19, 20
// reported shrunken log2 fold change per item
Respond with the number and no other words.

The sequence RRIRIRPPRLPRPRPRPMLMPRP showed shrunken log2 fold change equal to -0.515

shrunken log2 fold change measured on RRIRSRPPRLPRPRPRPNYNPRP = -0.904

Looking up RRIRNRPPRLPRPRPRPHLNPRP , I see its shrunken log2 fold change listed as -0.599

Reported shrunken log2 fold change ( RRIRCRPPRLPRPRPRPGKRPRP ) = 0.244

----------
Below: a set of entries, each annotated with reported shrunken log2 fold change.
system: Escherichia coli TOP10; experiment: shrunken log2 fold change of peptide-encoding DNA abundance (4.5 h post-induction vs induction); higher = less antimicrobial activity (less host growth inhibition); conditions: time post-induction: 4.5 h; library: site-saturation at positions 5, 18, 19, 20
// return just the number, without any unit appended

Sequence record: RRIRSRPPRLPRPRPRPTYKPRP
Test value: -0.495

Sequence record: RRIRTRPPRLPRPRPRPWMWPRP
Test value: 0.101

Sequence record: RRIRQRPPRLPRPRPRPIPKPRP
Test value: -0.0574

Sequence record: RRIRERPPRLPRPRPRPGIVPRP
Test value: -0.113

Sequence record: RRIRDRPPRLPRPRPRPVWKPRP
Test value: -0.0168

What the record says about RRIRLRPPRLPRPRPRPDTHPRP : shrunken log2 fold change is -0.543

Entry RRIRFRPPRLPRPRPRPWCHPRP — recorded shrunken log2 fold change = 0.524

Value of shrunken log2 fold change reported for the sequence RRIRFRPPRLPRPRPRPKNIPRP is -0.485

----------
test system: Escherichia coli TOP10; experiment: shrunken log2 fold change of peptide-encoding DNA abundance (4.5 h post-induction vs induction); higher = less antimicrobial activity (less host growth inhibition); conditions: time post-induction: 4.5 h; library: site-saturation at positions 5, 18, 19, 20
Reported shrunken log2 fold change values are given for each entry in this list.
Lab note: write the figure by itself, no unit.

Sequence record: RRIRPRPPRLPRPRPRPVITPRP
shrunken log2 fold change: -0.123

Entry RRIRERPPRLPRPRPRPQVFPRP ; shrunken log2 fold change = -0.0552

// field: shrunken log2 fold change; key: RRIRYRPPRLPRPRPRPLQFPRP ; value = -0.537

In plain terms, RRIRPRPPRLPRPRPRPKHQPRP has a documented shrunken log2 fold change of 0.0315

Lab note: measured shrunken log2 fold change of RRIRDRPPRLPRPRPRPNCSPRP was 0.271

Noted for RRIRPRPPRLPRPRPRPCASPRP : its shrunken log2 fold change reads -0.0883

----------
tested on: Escherichia coli TOP10; assay: shrunken log2 fold change of peptide-encoding DNA abundance (4.5 h post-induction vs induction); higher = less antimicrobial activity (less host growth inhibition); settings: time post-induction: 4.5 h; library: site-saturation at positions 5, 18, 19, 20
Label true when shrunken log2 fold change >= 0.02; otherwise false.

Observe how each entry below is paired with its result.
Sequence record: RRIRDRPPRLPRPRPRPEAAPRP
Study target: Escherichia coli TOP10
Answer label: true

Sequence record: RRIRLRPPRLPRPRPRPGANPRP
Study target: Escherichia coli TOP10
Answer label: false

Sequence record: RRIRERPPRLPRPRPRPCCGPRP
Study target: Escherichia coli TOP10
Answer label: false

Sequence record: RRIRNRPPRLPRPRPRPEWSPRP
Study target: Escherichia coli TOP10
Answer label: true

Sequence record: RRIRTRPPRLPRPRPRPIIAPRP
Study target: Escherichia coli TOP10
Answer label: false

Sequence record: RRIRDRPPRLPRPRPRPMKKPRP
Study target: Escherichia coli TOP10
Answer label: false

Sequence record: RRIRMRPPRLPRPRPRPEFIPRP
Study target: Escherichia coli TOP10
Answer label: false

# evaluate next
Data request: Could you tell me if the measured shrunken log2 fold change of RRIRGRPPRLPRPRPRPHSKPRP reaches 0.02 or more?
Data returned: true

----------
tested on: Escherichia coli TOP10; experiment: shrunken log2 fold change of peptide-encoding DNA abundance (4.5 h post-induction vs induction); higher = less antimicrobial activity (less host growth inhibition); settings: time post-induction: 4.5 h; library: site-saturation at positions 5, 18, 19, 20
Label scheme for shrunken log2 fold change: class A (below -0.1), class B (-0.1 to below 0.2), class C (0.2 or more)

Sequence record: RRIRDRPPRLPRPRPRPSPRPRP
Answer label: class B
//
Sequence record: RRIRRRPPRLPRPRPRPKQWPRP
Answer label: class C
//
Sequence record: RRIRTRPPRLPRPRPRPPVAPRP
Answer label: class C
//
Sequence record: RRIRNRPPRLPRPRPRPSMGPRP
Answer label: class B
//
Sequence record: RRIRKRPPRLPRPRPRPDEHPRP
Answer label: class B
//
Sequence record: RRIRGRPPRLPRPRPRPIAVPRP
Answer label: class C
//
Sequence record: RRIRERPPRLPRPRPRPIIHPRP
Answer label: class A
//
Sequence record: RRIRERPPRLPRPRPRPPKAPRP
Answer label: class C

Data request: # classify by shrunken log2 fold change band: RRIRPRPPRLPRPRPRPHMMPRP
Data returned: class A

Data request: // return the class label for RRIRMRPPRLPRPRPRPIKPPRP
Data returned: class A

Data request: Classify this sequence: RRIRTRPPRLPRPRPRPEAAPRP
Data returned: class C

Data request: Hi there! Could you help me figure out the category for RRIRCRPPRLPRPRPRPAYWPRP please?
Data returned: class C

Data request: Just checking, what class would you give RRIRFRPPRLPRPRPRPAAQPRP here?
Data returned: class B

Data request: Quick check: band for RRIRARPPRLPRPRPRPHHNPRP
Data returned: class A

----------
# shrunken log2 fold change per record follows
tested on: Escherichia coli TOP10; test: shrunken log2 fold change of peptide-encoding DNA abundance (4.5 h post-induction vs induction); higher = less antimicrobial activity (less host growth inhibition); details: time post-induction: 4.5 h; library: site-saturation at positions 5, 18, 19, 20;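 also: peptides expressed intracellularly from a pBAD plasmid library in pooled LB shake-flask culture, induced with 0.3% L-arabinose, DNA abundance read by NGS, three biological replicates, DESeq2 with apeglm shrinkage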

These solved cases illustrate the format of a correct answer.
Sequence record: RRIRRRPPRLPRPRPRPERPPRP
shrunken log2 fold change: 0.991

Sequence record: RRIRRRPPRLPRPRPRPFVLPRP
shrunken log2 fold change: -0.0834

Sequence record: RRIRARPPRLPRPRPRPRNPPRP
shrunken log2 fold change: 0.225

Sequence record: RRIRRRPPRLPRPRPRPLQMPRP
shrunken log2 fold change: -0.133

With Escherichia coli TOP10 as the test system, RRIRPRPPRLPRPRPRPNIWPRP showed shrunken log2 fold change of -0.0307

Escherichia coli TOP10 data for RRIRNRPPRLPRPRPRPAKYPRP ; its shrunken log2 fold change: -0.134

Assay Escherichia coli TOP10, sample RRIRIRPPRLPRPRPRPCFSPRP , shrunken log2 fold change read: -0.198

Reference source: the supplement of paper PMC9112550
